# reported residual activity; entries follow
# system: NEK2 (human)
# measurement protocol: radiometric filter-binding kinase assay, Kinase HotSpot
# conditions: compound 0.5 µM; ATP 10 µM

>  <compound string>
O=C(O)c1ccc2c3c1cccc3c(=O)n1c3ccccc3nc21

>  <residual activity, %>
109

$$$$
>  <compound string>
COc1cc2ncnc(Nc3ccc(O)c(Br)c3)c2cc1OC

>  <residual activity, %>
105

$$$$
>  <compound string>
O=c1cc(N2CCOCC2)oc2c(-c3ccccc3)cccc12

>  <residual activity, %>
89.8

$$$$
>  <compound string>
CCCCc1c(-c2ccc(O)cc2)[nH]c2nccnc12

>  <residual activity, %>
106

$$$$
>  <compound string>
COc1cc2c(cc1OC)-c1[nH]nc(Nc3cccc(F)c3)c1C2

>  <residual activity, %>
93

$$$$
>  <compound string>
O=S(=O)(NCCNC/C=C/c1ccc(Br)cc1)c1cccc2cnccc12

>  <residual activity, %>
97.1

$$$$
>  <compound string>
N/C(=N\N=C/c1ccc(-c2cccc([N+](=O)[O-])c2)o1)N[N+](=O)[O-]

>  <residual activity, %>
88.9

$$$$
>  <compound string>
Nc1ncnc2c1cnn2-c1ccccc1

>  <residual activity, %>
98.8

$$$$
>  <compound string>
N#CCCc1ccc2c(c1)-c1[nH]c3ccc([N+](=O)[O-])cc3c1CC(=O)N2

>  <residual activity, %>
92.7

$$$$
>  <compound string>
O=c1c2ccccc2[nH]c(=S)n1CCN1CCC(=C(c2ccc(F)cc2)c2ccc(F)cc2)CC1

>  <residual activity, %>
100

$$$$
>  <compound string>
O=C(c1ccccc1)c1ccc(N2CCOCC2)cc1O

>  <residual activity, %>
101

$$$$

Each recorded value in this set is attributed to the kinase profiling compilation of Christmann-Franck et al. (2016).
